Target: Androgen receptor (Homo sapiens, UniProt P10275)
Sequence (P10275 whole entry): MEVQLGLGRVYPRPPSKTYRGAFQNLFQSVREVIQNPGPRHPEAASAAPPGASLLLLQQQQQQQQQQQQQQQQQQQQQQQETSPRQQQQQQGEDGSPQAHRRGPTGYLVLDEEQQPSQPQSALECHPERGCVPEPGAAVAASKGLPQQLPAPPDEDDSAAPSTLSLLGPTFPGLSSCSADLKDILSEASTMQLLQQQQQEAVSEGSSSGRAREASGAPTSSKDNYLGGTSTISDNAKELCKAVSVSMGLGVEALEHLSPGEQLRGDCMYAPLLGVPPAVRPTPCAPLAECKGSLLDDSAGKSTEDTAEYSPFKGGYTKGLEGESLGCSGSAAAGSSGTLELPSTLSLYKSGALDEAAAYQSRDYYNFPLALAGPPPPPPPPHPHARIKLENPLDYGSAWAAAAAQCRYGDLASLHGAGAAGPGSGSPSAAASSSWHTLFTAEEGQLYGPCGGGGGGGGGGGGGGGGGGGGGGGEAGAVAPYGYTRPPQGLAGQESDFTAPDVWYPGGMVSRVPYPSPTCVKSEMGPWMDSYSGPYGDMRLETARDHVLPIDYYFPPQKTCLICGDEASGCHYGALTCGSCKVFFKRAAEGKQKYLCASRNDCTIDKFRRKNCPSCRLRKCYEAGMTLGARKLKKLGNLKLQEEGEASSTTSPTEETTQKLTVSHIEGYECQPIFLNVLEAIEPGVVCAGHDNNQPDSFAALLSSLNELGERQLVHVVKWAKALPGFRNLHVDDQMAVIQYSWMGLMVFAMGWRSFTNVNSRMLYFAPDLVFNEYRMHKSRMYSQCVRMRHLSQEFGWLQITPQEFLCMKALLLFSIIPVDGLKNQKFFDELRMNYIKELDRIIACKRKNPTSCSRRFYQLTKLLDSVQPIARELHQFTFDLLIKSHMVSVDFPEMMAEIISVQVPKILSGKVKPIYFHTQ
pIC50: −log10 of the molar value.
For each record, write down the corresponding pIC50.

// below: answered molecules
>>> test_result("CC1CN(CC(F)(F)F)c2cc3c(C(F)(F)F)cc(=O)[nH]c3cc2O1 (stereo in doubt; (-)-10h)")
"< 5.00"
>>> test_result("O=c1cc(C(F)(F)F)c2cc3c(cc2[nH]1)OCCN3Cc1ccccc1")
6.65
>>> test_result("O=c1cc(C(F)(F)F)c2cc3c(cc2[nH]1)OCCN3CC(F)(F)F")
"< 5.00"
>>> test_result("CCCN1CCOc2cc3[nH]c(=O)cc(C(F)(F)F)c3cc21")
"< 5.00"

Moving on to another molecule below.
**Q:** Quick one: pIC50 for CCC1CN(CC(F)(F)F)c2cc3c(C(F)(F)F)cc(=O)[nH]c3cc2O1 (racemic) ?
**A:** < 5.00

###

Target: Androgen receptor (Homo sapiens)
Result type: log10(Ki) (log10 of the value in nM)
Could you please treat all values as log10 of Ki in nM?

>>> test_result("CC1COc2cc3[nH]c(=O)cc(C(F)(F)F)c3cc2N1 (racemic)")
2.05
>>> test_result("O=c1cc(C(F)(F)F)c2cc3c(cc2[nH]1)OCCN3Cc1ccccc1")
2.31
>>> test_result("O=c1cc(C(F)(F)F)c2cc3c(cc2[nH]1)OC[C@H]1CCCN31")
1.43
>>> test_result("CC(C)[C@@H]1COc2cc3[nH]c(=O)cc(C(F)(F)F)c3cc2N1CC(F)(F)F")
1.71
>>> test_result("CC(C)(C)N1CCOc2cc3[nH]c(=O)cc(C(F)(F)F)c3cc21")
1.68

Need log10(Ki) for each of these compounds.
1. CC1CN(C)c2cc3c(C(F)(F)F)cc(=O)[nH]c3cc2O1 (racemic)
2. CCC1CN(CC(F)(F)F)c2cc3c(C(F)(F)F)cc(=O)[nH]c3cc2O1 (racemic)
3. O=c1cc(C(F)(F)F)c2cc3c(cc2[nH]1)OCC1CCCCN31 (racemic)
4. CCN1c2cc3c(C(F)(F)F)cc(=O)[nH]c3cc2OCC1C (racemic)
5. CC(C)CN1CCOc2cc3[nH]c(=O)cc(C(F)(F)F)c3cc21
6. CC1COc2cc3[nH]c(=O)cc(C(F)(F)F)c3cc2N1CC1CC1 (racemic)

**A:**
1: 1.52; 2: 1.48; 3: 1.20; 4: 0.62; 5: 1.23; 6: 0.60

**Q:** Value wanted: log10(Ki) (Androgen receptor (Homo sapiens)) of entry `CC(C)C[C@@H]1COc2cc3[nH]c(=O)cc(C(F)(F)F)c3cc2N1CC(F)(F)F`
**A:** 2.04

###

Endpoint: pEC50. System: Androgen receptor (Homo sapiens, UniProt P10275). Items follow.
Answers are plain numbers, as −log10 of the molar value.

>>> test_result("CCC1COc2cc3[nH]c(=O)cc(C(F)(F)F)c3cc2N1CC (racemic)")
8.41
>>> test_result("CCC1CN(C)c2cc3c(C(F)(F)F)cc(=O)[nH]c3cc2O1 (racemic)")
7.28
>>> test_result("CCN1c2cc3c(C(F)(F)F)cc(=O)[nH]c3cc2OCC1C (racemic)")
8.00

Need pEC50 for each of these molecules.
1. CC(C)C[C@@H]1COc2cc3[nH]c(=O)cc(C(F)(F)F)c3cc2N1CC(F)(F)F
2. CCC1COc2cc3[nH]c(=O)cc(C(F)(F)F)c3cc2N1CC1CC1 (racemic)
3. CC1COc2cc3[nH]c(=O)cc(C(F)(F)F)c3cc2N1CC1CC1 (racemic)
4. CCC1CN(CC)c2cc3c(C(F)(F)F)cc(=O)[nH]c3cc2O1 (racemic)
5. CC1COc2cc3[nH]c(=O)cc(C(F)(F)F)c3cc2N1 (racemic)
6. CC(C)(C)N1CCOc2cc3[nH]c(=O)cc(C(F)(F)F)c3cc21

**A:**
7.57
8.64
8.72
7.51
6.88
8.11
